Here, each record is paired with measured Phage Binding (relative to BPTI phage) data.
Target: T1, human plasmin (human, UniProt P00747 97-810, limits assumed)
T1 construct: also called plasmin-beads; plasmin-agarose beads
T1 sequence (P00747 97-810 limits assumed): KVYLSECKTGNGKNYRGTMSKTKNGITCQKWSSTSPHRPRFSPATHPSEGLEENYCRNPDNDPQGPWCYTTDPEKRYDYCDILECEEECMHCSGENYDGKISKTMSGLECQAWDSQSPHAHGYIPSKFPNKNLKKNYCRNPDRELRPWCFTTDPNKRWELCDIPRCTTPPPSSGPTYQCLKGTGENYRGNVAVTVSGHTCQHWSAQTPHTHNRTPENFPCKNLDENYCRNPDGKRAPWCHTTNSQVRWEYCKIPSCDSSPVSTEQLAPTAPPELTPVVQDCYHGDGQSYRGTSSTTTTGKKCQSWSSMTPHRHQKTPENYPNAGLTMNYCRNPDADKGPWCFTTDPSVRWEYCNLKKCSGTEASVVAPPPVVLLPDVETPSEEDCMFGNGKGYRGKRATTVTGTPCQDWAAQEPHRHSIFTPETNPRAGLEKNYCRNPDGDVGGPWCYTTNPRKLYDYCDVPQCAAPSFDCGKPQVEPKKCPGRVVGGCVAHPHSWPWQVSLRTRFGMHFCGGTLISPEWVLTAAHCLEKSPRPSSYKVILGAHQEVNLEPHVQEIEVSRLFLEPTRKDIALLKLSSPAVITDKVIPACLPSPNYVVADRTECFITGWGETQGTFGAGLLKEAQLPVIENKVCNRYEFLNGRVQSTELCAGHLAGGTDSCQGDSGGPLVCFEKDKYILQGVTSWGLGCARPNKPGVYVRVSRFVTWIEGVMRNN
Experiment: binding of clonally pure display phage to plasmin relative to BPTI display phage

Record excerpt, results attached:
[Q] Given the entry SPI11 (Selected Plasmin Inhibitor#11) (designed binder, also called isolate 11) MHSFCAFKAETGPCRARFDRWFFNIFTRQCEEFIYGGCEGNQNRFESLEECKKMCTRD , report its measured Phage Binding (relative to BPTI phage).
[A] 3.2 fold of BPTI phage

[Q] For SPI15 (designed binder, 41 for the whole domain; 90 for the printed residues 10-21; also called SP115; isolate 15) MHSFCAFKAESGPCRARFDRWFFNIFTRQCEEFIYGGCEGNQNRFESLEECKKMCTRD , what is its reported Phage Binding (relative to BPTI phage)?
[A] 2.5 fold of BPTI phage

[Q] What Phage Binding (relative to BPTI phage) value was documented for this binder, SPI16 (designed binder, 110 for the printed residues 10-21) MHSFCAFKAEVGACKGRFHRWFFNIFTRQCEEFIYGGCEGNQNRFESLEECKKMCTRD ?
[A] 0.22 fold of BPTI phage

---
[Q] Consider the binder shown here: SPI22 (designed binder, also called isolate 22) MHSFCAFKADGGPCKGKFPRFFFNIFTRQCEEFIYGGCEGNQNRFESLEECKKMCTRD What is its recorded Phage Binding (relative to BPTI phage)?
[A] 2 fold of BPTI phage

[Q] Which Phage Binding (relative to BPTI phage) value belongs to SPI21 (designed binder, 116 for the printed residues 10-21) MHSFCAFKADSGACKGKFERWFFNIFTRQCEEFIYGGCEGNQNRFESLEECKKMCTRD ?
[A] 0.38 fold of BPTI phage
